- system-tested: UniProtKB P51639
- Sequence (P51639 whole entry): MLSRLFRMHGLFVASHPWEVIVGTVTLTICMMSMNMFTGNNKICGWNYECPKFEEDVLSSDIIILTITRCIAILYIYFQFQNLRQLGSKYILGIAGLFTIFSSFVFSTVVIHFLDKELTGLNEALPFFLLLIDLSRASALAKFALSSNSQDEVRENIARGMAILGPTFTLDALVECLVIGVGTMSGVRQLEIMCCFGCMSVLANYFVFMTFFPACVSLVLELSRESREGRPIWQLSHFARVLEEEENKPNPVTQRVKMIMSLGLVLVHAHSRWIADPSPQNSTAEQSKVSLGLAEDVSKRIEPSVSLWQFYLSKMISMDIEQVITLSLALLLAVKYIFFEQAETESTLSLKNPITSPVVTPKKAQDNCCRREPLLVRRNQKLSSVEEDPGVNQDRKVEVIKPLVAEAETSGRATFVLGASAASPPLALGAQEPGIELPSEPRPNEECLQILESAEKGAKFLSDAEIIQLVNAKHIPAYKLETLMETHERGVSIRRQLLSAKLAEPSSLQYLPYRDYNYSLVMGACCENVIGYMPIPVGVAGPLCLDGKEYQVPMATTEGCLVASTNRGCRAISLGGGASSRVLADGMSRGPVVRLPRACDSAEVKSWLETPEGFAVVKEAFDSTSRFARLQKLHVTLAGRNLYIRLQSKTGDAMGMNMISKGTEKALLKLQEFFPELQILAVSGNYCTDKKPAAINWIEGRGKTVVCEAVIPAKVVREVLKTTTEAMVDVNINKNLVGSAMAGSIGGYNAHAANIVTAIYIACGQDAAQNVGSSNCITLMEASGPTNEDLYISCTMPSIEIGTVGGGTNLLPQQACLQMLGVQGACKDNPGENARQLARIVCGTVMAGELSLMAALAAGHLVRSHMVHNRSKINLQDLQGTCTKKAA
pIC50: −log10 of the molar value.

compound	pIC50
Cc1ccc(/C=C/[C@@H]2C[C@@H](O)CC(=O)O2)c(C)c1	4.52
O=C1C[C@H](O)C[C@@H](CCc2c(Cl)cc(Cl)cc2OCc2ccc(F)cc2)O1 (stereo in doubt; 66(+))	7.30
O=C1C[C@H](O)CC(CCc2c(Cl)cc(Cl)cc2OCC2CCCCC2)O1 (stereo partly drawn)	6.12
O=C1C[C@H](O)CC(CCc2c(Cl)cc(Cl)cc2OCc2ccc(C(F)(F)F)cc2)O1 (stereo partly drawn)	4.89
O=C1C[C@H](O)C[C@@H](/C=C/c2c(Cl)cc(Cl)cc2OCc2ccc(Cl)cc2)O1	5.60
O=C1C[C@H](O)C[C@@H](/C=C/c2c(Cl)cc(Cl)cc2OCc2ccc(F)cc2)O1	6.70
O=C1C[C@H](O)C[C@@H](CCc2c(Cl)cc(Cl)cc2OCc2ccc(F)cc2)O1 (stereo in doubt; 66)	7.12
O=C1C[C@H](O)C[C@@H](/C=C/c2c(Cl)cc(Cl)cc2OCc2ccccn2)O1	5.92
O=C1C[C@H](O)C[C@@H](/C=C/c2c(Cl)cc(Cl)cc2OCCCc2ccccc2)O1	5.84
O=C1C[C@H](O)C[C@@H](/C=C/c2c(Cl)cc(Cl)cc2OCc2cc[n+]([O-])cc2)O1	3.93
C=CCOc1cc(Cl)cc(Cl)c1/C=C/[C@@H]1C[C@@H](O)CC(=O)O1	6.12
O=C1C[C@H](O)C[C@@H](/C=C/c2c(Cl)cc(Cl)cc2OCc2ccco2)O1	6.22
O=C1C[C@H](O)CC(CCc2c(Cl)cc(Cl)cc2OCc2ccccc2F)O1 (stereo partly drawn)	6.82
